Consider the following molecules and their measured normalized growth readings.
- assay_protocol: chemical genetic growth profiling, strain panel (AID 1159580);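 also: tested at 20 µM; growth read once vehicle control cultures reached saturation at 30 °C; 1 = growth at the plate median or of vehicle wells; lower values mean less growth of the strain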
- test_conditions: S. cerevisiae deletion strains, growth OD, locus YMR129W, hits give low values
Screen size: about 5,500 compounds; about 2,000 (36%) were called active. Roughly 18% stayed inconclusive and do not appear here. The list shows a part of the results.
Hey, just send me the number, nothing else.

Known results for molecules:
CCn1cc(C(=O)O)c(=O)c2cc3c(cc21)OCO3    0.989
CCn1cc(C(=O)O)c(=O)c2cnc(N3CCNCC3)nc21    1.01
COC(=O)[C@H]1[C@H]2C[C@@H]3c4[nH]c5cc(OC)ccc5c4CCN3C[C@H]2C[C@@H](OC(=O)c2cc(OC)c(OC)c(OC)c2)[C@@H]1OC    0.981
O=C(/C=C/c1ccc(O)c(O)c1)O[C@@H]1C[C@](O)(C(=O)O)C[C@@H](O)[C@H]1O    0.991
CCOC(=O)C(C)(N)Cc1ccc(O)c(O)c1 (stereo not given)    0.997

Okay, next one:
Could you share which normalized growth value was measured for `COc1ccc(/C=C/c2cc(O)cc(O)c2)cc1` ?
1.01
